Value source: patent US20260070929A1

biological target: KRAS(G12D)/SOS1 (Homo sapiens, UniProt P01116, G12D); test: KRAS(G12D)/SOS1 homogeneous time-resolved fluorescence (HTRF) assay; conditions: absence of GTP; 4° C., 3 hr
Sequence (P01116 1-188 isoform P01116-2 G12D): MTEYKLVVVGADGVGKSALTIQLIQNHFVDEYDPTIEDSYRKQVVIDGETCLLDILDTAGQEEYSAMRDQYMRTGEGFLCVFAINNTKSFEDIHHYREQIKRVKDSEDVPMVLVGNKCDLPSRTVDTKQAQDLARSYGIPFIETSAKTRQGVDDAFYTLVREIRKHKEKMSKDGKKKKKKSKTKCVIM
READOUT NAME: IC50

[
  {
    "MOLECULE": "C#Cc1cccc2cccc(-c3ncc4c(N5CC6CCC(C5)N6)nc(OCC5(CN6CCN(C(=O)C7CCN(Cc8ccc(-n9c(O)nnc9-c9cc(C(C)C)c(O)cc9O)cc8)CC7)CC6)CC5)nc4c3F)c12 [Compound 18]",
    "IC50": "< 0.1 µM"
  },
  {
    "MOLECULE": "C#Cc1c(F)ccc2cc(O)cc(-c3ncc4c(N5CC6CCC(C5)N6)nc(OC5CN(Cc6ccc(-n7c(C(=O)NCC(F)(F)F)nnc7-c7cc(C(C)C)c(O)cc7O)cc6)C5)nc4c3F)c12 [Compound 179]",
    "IC50": "0.1 to 1 µM"
  },
  {
    "MOLECULE": "C#Cc1cccc2cc(O)cc(-c3ncc4c(N5CC6CNC(C6)C5)nc(OCC5(CN6CCN(CC7CCN(C(=O)C8CCN(Cc9ccc%10c(c9)CN(C(=O)c9cc(C(C)C)c(O)cc9O)C%10)CC8)CC7)CC6)CC5)nc4c3F)c12 (stereo not shown) [Compound 136]",
    "IC50": "0.1 to 1 µM"
  }
]

# context switch: different molecule, same IC50
Problem: Query (molecule): C#Cc1cccc2cc(O)cc(-c3ncc4c(N5CC6CCC(C5)N6)nc(OC[C@@H]5C[C@H](N6CCN(Cc7ccc(-n8c(C(=O)NC(C)C(F)(F)F)nnc8-c8cc(C(C)C)c(O)cc8O)cc7)CC6)CN5C)nc4c3F)c12 (stereo partly shown) [Compound 98] ; field requested: IC50
Result: < 0.1 µM

* * *

Listed here are molecules together with their documented pIC50.
biological target: KRAS(G12D)/SOS1 (Homo sapiens, UniProt P01116, G12D); assay: KRAS(G12D)/SOS1 homogeneous time-resolved fluorescence (HTRF) assay; settings: absence of GTP; 4° C., 3 hr
pIC50: −log10 of the molar value.

Use these answered entries as a reference point.
[
  {
    "MOLECULE": "C#Cc1cccc2cc(O)cc(-c3ncc4c(N5CC6CCC(C5)N6)nc(OCC5(CN6CCC(OC7CCN(Cc8ccc(-n9c(C(=O)NC(C)C(F)(F)F)nnc9-c9cc(C(C)C)c(O)cc9O)cc8)CC7)CC6)CC5)nc4c3F)c12 (centres unmarked)",
    "READOUT NAME": "pIC50",
    "VALUE MEASURED": "> 7.00"
  },
  {
    "MOLECULE": "Cc1cccc2cccc(-c3ncc4c(N5CC6CCC(C5)N6)nc(OC[C@@H]5CC[C@H](CN6CCN(Cc7ccc8c(c7)CN(C(=O)c7cc(C(C)C)c(O)cc7O)C8)CC6)N5C)nc4c3F)c12",
    "READOUT NAME": "pIC50",
    "VALUE MEASURED": "6.00 to 7.00"
  },
  {
    "MOLECULE": "CCNC(=O)c1nnc(-c2cc(C(C)C)c(O)cc2O)n1-c1ccc(CN2CCN([C@H]3C[C@@H](COc4nc(N5CC6CCC(C5)N6)c5cnc(-c6cccc(C)c6C)c(F)c5n4)N(C)C3)CC2)cc1",
    "READOUT NAME": "pIC50",
    "VALUE MEASURED": "> 7.00"
  },
  {
    "MOLECULE": "C#Cc1c(F)ccc2cc(O)cc(-c3ncc4c(N5CC6CCC(C5)N6)nc(OCC5CN(CC6(CNc7ccc8c(c7)CN(C(=O)c7cc(C(C)C)c(O)cc7O)C8)CC6)C5)nc4c3F)c12",
    "READOUT NAME": "pIC50",
    "VALUE MEASURED": "> 7.00"
  }
]

Now examine the next entry.
Problem: Item under review: CC(C)c1cc(-c2nnc(C(=O)NCC(F)(F)F)n2-c2ccc(CN3CCN([C@H]4C[C@@H](COc5nc(N6CC7CCC(C6)N7)c6cnc(-c7cccc8cccc(F)c78)c(F)c6n5)N(C)C4)CC3)cc2)c(O)cc1O . Reported pIC50?
Result: 6.00 to 7.00
